Data provenance: PubChem BioAssay (NCI)

- Test Summary: NCI Yeast Anticancer Drug Screen. Data for the rad50 strain (AID 155)
- Condition Notes: S. cerevisiae rad50 strain growth inhibition; at 50.0 µM (retest, dose inferred, filed as 5.0); hits give high values
The panel holds about 79,000 compounds, 15% with a hit somewhere; the sample as a whole holds those more often.
# class assignment by measured growth inhibition: class A = under 20%, class B = from 20% up to 70%, class C = 70% and over

Example entries and their recorded answers appear below.
Compound	Discrete Label
Nc1ccc2nc(N)sc2c1	class A
CC1(C)CC(=O)C(C=NC(=S)c2ccccc2)=C(O)C1	class B
C/C=C(/CCC1NCCC2c3ccccc3NC12)[Si](C)(C)C (stereo unspecified)	class A

Moving on to the next compound.
**Q:** Which of the defined bands does the recorded growth inhibition of COc1cc(O)c2c(c1)C(O)C(O)CC1OC1C(=O)/C=C/CC(C)OC2=O (stereo unspecified) sit within?
**A:** class C
